As shown below, each of these compounds has a reported EC50 value.
# Tested on: Streptococcus sp. 'group A'
# assay protocol: Streptococcus pyogenes SK(-)GAS viability under kanamycin – luminescence, BacTiterGlo, confirmation, counter-screen for streptokinase expression inhibitor project, dose response (AID 1900)
# Assay type: functional, organism-based
Active and inactive are the calls of the source.

Some solved cases for reference:
compound: NC(=O)c1cc(C(=O)Cc2ccccc2)c[nH]1
assayed target: Streptococcus sp. 'group A'
meas value: 2.27 µM (active)

compound: CCOC(=O)C1=C(C)N=C2C(=C(O)c3ccccc32)C1c1ccc([N+](=O)[O-])o1 (stereo not given)
assayed target: Streptococcus sp. 'group A'
meas value: 2.81 µM (active)

compound: COc1ccc(C(=O)c2coc3c2C(=O)C(=O)c2ccccc2-3)cc1
assayed target: Streptococcus sp. 'group A'
meas value: 1.84 µM (active)

Input: Provide measured EC50 on Streptococcus sp. 'group A' for COc1ccccc1N1CCN(C(=O)/C=C/c2c(Cl)nc3ccccn23)CC1 please.
Output: 1.25 µM (active)

Input: Provide measured EC50 on Streptococcus sp. 'group A' for Cc1nn2c(O)cc(-c3ccc([N+](=O)[O-])cc3)nc2c1-c1ccccc1 please.
Output: 0.662 µM (active)

Input: Provide measured EC50 on Streptococcus sp. 'group A' for Cc1ccc2c(C)c(C(=O)Nc3ccc(S(=O)(=O)Nc4onc(C)c4C)cc3)oc2c1 please.
Output: 23.8 µM (active)

Input: Provide measured EC50 on Streptococcus sp. 'group A' for COc1ccc(N2CCN(C(=S)NC(=O)c3cccs3)CC2)c([N+](=O)[O-])c1 please.
Output: 9.37 µM (active)

Input: Provide measured EC50 on Streptococcus sp. 'group A' for CCOC(=O)c1cc(-c2cccs2)nc2c1c(C)nn2-c1ccccn1 please.
Output: 13.1 µM (active)

Input: Provide measured EC50 on Streptococcus sp. 'group A' for COc1ccc(C(Nc2cc(C)ccn2)c2ccc3ccc(C)nc3c2O)cc1 (stereo not given) please.
Output: 14.3 µM (active)

Input: Provide measured EC50 on Streptococcus sp. 'group A' for CC1CCN(Cc2c(C(=O)N/N=C/c3cc(Cl)ccc3O)nnn2-c2nonc2N)CC1 please.
Output: 27.3 µM (active)

----------
# assayed target: Heat shock factor protein 1 (Mus musculus)
# Sequence (P38532 whole entry): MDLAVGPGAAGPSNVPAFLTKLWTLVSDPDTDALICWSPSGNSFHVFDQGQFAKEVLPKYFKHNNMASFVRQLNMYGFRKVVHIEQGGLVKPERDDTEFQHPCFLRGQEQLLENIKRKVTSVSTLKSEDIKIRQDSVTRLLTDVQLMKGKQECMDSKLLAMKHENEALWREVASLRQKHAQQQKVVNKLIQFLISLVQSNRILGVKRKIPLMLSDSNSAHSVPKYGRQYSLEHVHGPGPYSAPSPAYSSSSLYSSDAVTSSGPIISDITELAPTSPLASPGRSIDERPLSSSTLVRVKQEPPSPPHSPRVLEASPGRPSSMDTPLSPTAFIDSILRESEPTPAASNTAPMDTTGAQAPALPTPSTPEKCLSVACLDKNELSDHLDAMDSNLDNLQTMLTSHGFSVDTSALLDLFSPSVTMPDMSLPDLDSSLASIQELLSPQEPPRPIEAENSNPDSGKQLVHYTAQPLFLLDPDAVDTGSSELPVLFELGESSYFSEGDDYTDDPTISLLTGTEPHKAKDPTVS
# assay protocol: decrease of HSF1-responsive luciferase luminescence – cell-based, NIH3T3, dose retest, confirmation (AID 2382);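 also: NIH3T3 fibroblasts with HSF1-driven luciferase reporter stressed by proteasome inhibitor MG132; luminescence from HSF1-driven luciferase expression after 8 hours of MG132 stress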
# Assay type: functional
Active and inactive are the calls of the source.
property label: EC50

Some solved cases for reference:
compound: CN(CC(=O)NCc1cccnc1)S(=O)(=O)c1ccc2c(c1)c(=O)n(C)c(=O)n2C
assayed target: Heat shock factor protein 1 (Mus musculus)
EC50: > 195 µM (not active)
--
compound: CCC(C)c1ccc(NC(=O)C2CC2)cc1 (centres undefined)
assayed target: Heat shock factor protein 1 (Mus musculus)
EC50: > 195 µM (not active)
--
compound: C=CCN1C(=O)C(Cc2ccc(OC)cc2)S/C1=N/N=C/c1ccco1 (centres undefined)
assayed target: Heat shock factor protein 1 (Mus musculus)
EC50: > 195 µM (not active)
--
compound: Cn1ccnc1Sc1cc(NCCCO)c([N+](=O)[O-])c2nonc12
assayed target: Heat shock factor protein 1 (Mus musculus)
EC50: 11.8 µM (active)
--
compound: COc1cccc(C(=O)CC(=O)C(=O)Nc2cc(OC)c(OC)c(OC)c2)c1
assayed target: Heat shock factor protein 1 (Mus musculus)
EC50: > 195 µM (not active)

Input: Assign EC50 to the following record: Cc1nn2c(=O)c(Cl)c(C)[nH]c2c1-c1ccccc1
Output: > 195 µM (not active)

Input: Assign EC50 to the following record: CC(=O)NC(c1ccc(C)cc1)c1cc(Cl)c2cccnc2c1O (centres undefined)
Output: 0.911 µM (active)

Input: Assign EC50 to the following record: Cc1ccc(OCC(O)CN2C(=O)NC(C)(C)C2=O)cc1C (centres undefined)
Output: > 195 µM (not active)

Input: Assign EC50 to the following record: CCCC(CCC)C(=O)Nc1ccc2c(c1)N(C(=O)CCN1CCN(C)CC1)c1ccccc1CC2
Output: > 195 µM (not active)

Input: Assign EC50 to the following record: CC(=O)c1ccc2c(c1)N(C)c1ccccc1S2
Output: > 195 µM (not active)

Input: Assign EC50 to the following record: CCCCOC(=O)CSCC(=O)Nc1cc(C)on1
Output: > 195 µM (not active)

Input: Assign EC50 to the following record: CCCCN(C(=O)COc1ccc(C)cc1OC)c1c(N)n(CCC)c(=O)[nH]c1=O
Output: > 195 µM (not active)

Input: Assign EC50 to the following record: Cc1cc(C)c2nc(O)c(C(c3nnnn3CC3CCCO3)N3CCC(C)CC3)cc2c1 (centres undefined)
Output: > 195 µM (not active)

Input: Assign EC50 to the following record: O=C(CS(=O)(=O)Cc1ccccc1)NCC1CCCO1 (centres undefined)
Output: > 195 µM (not active)

Input: Assign EC50 to the following record: CC(=O)c1ccc(NC(=O)c2cnn3ccccc23)cc1
Output: 14.3 µM (active)

Input: Assign EC50 to the following record: CCn1nc(C(=O)OCC(=O)NC(C)C)c2ccccc2c1=O
Output: > 195 µM (not active)

Input: Assign EC50 to the following record: CC1(C)Cc2nc3[nH]c(=S)n(-c4ccccc4)c(=O)c3cc2CO1
Output: > 195 µM (not active)

Input: Assign EC50 to the following record: Cc1ccccc1OCC(=O)OCC(=O)c1ccc(-c2ccccc2)cc1
Output: > 195 µM (not active)

Input: Assign EC50 to the following record: CC(C)(C)OC(=O)N[C@@H](Cc1ccccc1)C(=O)NC[C@H]1CC[C@H](C(=O)N[C@@H](CC(=O)O)C(=O)O)CC1
Output: > 195 µM (not active)

Input: Assign EC50 to the following record: CCN(c1ccccc1)S(=O)(=O)c1ccc(Cl)c(C(=O)N(CC2CCCO2)C2CCS(=O)(=O)C2)c1 (centres undefined)
Output: > 195 µM (not active)

Input: Assign EC50 to the following record: O=C1NC(=O)C(=NNc2ccc3c(c2)OCCO3)C(=O)N1
Output: < 0.16 µM (active)

Input: Assign EC50 to the following record: COc1ccc(-n2c(-c3ccc(F)cc3)cnc2SCC(=O)NCc2ccco2)cc1
Output: > 195 µM (not active)

Input: Assign EC50 to the following record: Cc1ccc(/C=C/C(=O)Nc2ccc(O)c3c(=O)cc(-c4ccccc4Cl)oc23)cc1
Output: > 195 µM (not active)

Input: Assign EC50 to the following record: CCC(Sc1nc(C)cc(C)n1)C(=O)NC1=NN=C(c2ccc(C)cc2)CS1 (centres undefined)
Output: 12.2 µM (active)

----------
# assayed target: UniProt:P38532
# assay protocol: enhancement of HSF1-driven luciferase signal – cell-based, NIH3T3, luminescence, dose retest, confirmation (AID 435004);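 also: stress induced by proteasome inhibitor MG132 added 30 min after compound; luciferase reporter driven by HSF1 response element in NIH3T3 cells; actives raise luminescence as potentiators of the MG132 stress response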
# Format: functional
Active and inactive are the calls of the source.
property label: EC50

compound: COc1cc(-c2nnc3sc(Cc4ccc(Cl)cc4)nn23)cc(OC)c1OC
EC50: > 260 µM (inactive)
--
compound: O=c1oc2cc(O)ccc2cc1S(=O)(=O)c1ccccc1
EC50: > 260 µM (inactive)
--
compound: Cc1c(Cl)c(C(=O)NC2CCCC2)nn1C
EC50: > 260 µM (inactive)

Input: Assign EC50 to the following record: Cc1ccsc1C(=O)C1CCCN(Cc2ccccc2O)C1 (configuration not stated)
Output: > 260 µM (inactive)

Input: Assign EC50 to the following record: COc1ccccc1CN1CC(C(=O)NCCc2ncccc2C)CCC1=O (configuration not stated)
Output: > 260 µM (inactive)

Input: Assign EC50 to the following record: O=C(COC(=O)c1ccccc1C(=O)c1ccccc1)Nc1cccc([N+](=O)[O-])c1
Output: > 260 µM (inactive)

Input: Assign EC50 to the following record: COc1ccccc1CCC(=O)OCC(=O)Nc1c(Br)cc(C)cc1Br
Output: > 260 µM (inactive)

Input: Assign EC50 to the following record: CCOC(=O)c1c(-c2ccc(C)o2)csc1NC(=O)CSc1nncs1
Output: > 260 µM (inactive)

----------
# assayed target: Prothrombin (Homo sapiens, UniProt P00734)
# assay protocol: Thrombin 1536 HTS Dose Response Confirmation. [Related pubchem assays: 1046 (Thrombin 1536 HTS; hits were confirmed in this assay)]
# Format: functional
Calls of active or inactive are those of the source.
As shown below, each of these compounds has a reported IC50 value.

Some solved cases for reference:
compound: COc1cc(S(=O)(=O)N2CCOCC2)ccc1NC(=O)COC(=O)COc1ccccc1
meas value: 3.63 µM (active)
--
compound: CSc1nc(-c2ccccc2)nc(N2CCOCC2)c1C(C)=O
meas value: > 50 µM (not active)
--
compound: Cc1cc(F)ccc1N1CCC(N2CCN(CCC(C)C)C(CCO)C2)CC1 (stereo not given)
meas value: > 50 µM (not active)

Input: Assign IC50 to the following record: CC1CCN(CC(=O)Nc2ccccc2C#N)CC1
Output: > 50 µM (not active)

Input: Assign IC50 to the following record: O=c1oc(-c2cccnc2)nc2ccccc12
Output: 0.966 µM (active)
